- experiment-summary: Luminescence Cell-Based Dose Confirmation HTS to Identify Activators of 5'UTR Stem-Loop Driven Alpha-Synuclein mRNA Translation in H4 Neuroglioblastoma Cells. [Related pubchem assays: 1829 (Project Summary), 1814 (Primary HTS)]
- Assay type: functional
Active and inactive are the calls of the source.
measured-property: EC50

Reference set (4 entries):
COc1ccc2oc(=O)c(C(=O)NC3CCCCCC3)cc2c1 : 28.6 µM (active)
O=C(c1cc(-c2cccc(Cl)c2)on1)N1CCOCC1 : 4.22 µM (active)
Cc1cccc2cc(C#N)c(SCc3nnc(-c4ccccc4[N+](=O)[O-])o3)nc12 : > 120 µM (not active)
COc1cccc(/C=N/NC(=O)CCn2nnc3ccccc32)c1 : > 120 µM (not active)

Here's the next entry for you.
Asked: What does the record list as EC50 for COC(=O)C1C(=O)C=C(Nc2ccc(F)cc2F)CC1c1ccccc1 (stereo not given) ?
Given back: > 120 µM (not active)

---

- study-system: Paired box protein Pax-8 (Homo sapiens)
- Sequence (Q06710 whole entry): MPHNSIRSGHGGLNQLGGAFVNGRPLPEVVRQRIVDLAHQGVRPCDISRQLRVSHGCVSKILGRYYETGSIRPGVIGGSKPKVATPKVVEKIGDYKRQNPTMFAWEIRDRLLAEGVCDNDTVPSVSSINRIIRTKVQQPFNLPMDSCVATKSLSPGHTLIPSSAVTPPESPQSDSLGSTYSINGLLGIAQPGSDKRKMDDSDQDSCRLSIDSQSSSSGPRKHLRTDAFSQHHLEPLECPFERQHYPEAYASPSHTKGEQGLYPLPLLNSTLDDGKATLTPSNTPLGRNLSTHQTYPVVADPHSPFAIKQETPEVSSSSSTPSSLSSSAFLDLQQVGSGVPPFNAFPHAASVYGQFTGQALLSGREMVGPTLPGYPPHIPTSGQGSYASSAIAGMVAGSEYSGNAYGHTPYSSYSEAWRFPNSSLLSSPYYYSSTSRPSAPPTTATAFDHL
- experiment-summary: PAX8 transcriptional activity inhibition in RMG-I – RMG-I cells, luciferase, cherry-pick, dose response (AID 687027);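 also: luciferase reporter driven by Pax8 target thyroperoxidase promoter measured by SteadyGlo luminescence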
- Type: functional, cell-based
The source made the active and inactive calls.
measured-property: AC50

Reference set (3 entries):
Cc1ccc(S(=O)(=O)N(C)C[C@H]2Oc3c(NC(=O)Nc4ccc(F)cc4)cccc3C(=O)N([C@@H](C)CO)C[C@H]2C)cc1 : 11.5 µM (active)
Cc1ccc(S(=O)(=O)N(C)C[C@@H]2Oc3ccc(NC(=O)Nc4ccc(C(F)(F)F)cc4)cc3CC(=O)N([C@H](C)CO)C[C@@H]2C)cc1 : 3.06 µM (active)
Cc1nc2ccccc2c(O)c1C(=O)/C=C/c1ccccc1 : 6.93 µM (active)

Asked: Item: "Cc1ccc(-n2nc(C)c(NC(=O)CCl)c2C)cc1C" Test system: Paired box protein Pax-8 (Homo sapiens) Read-out: AC50 Value: ?
Given back: 6.77 µM (active)

Asked: Item: "O=C(Nc1ccc(F)cc1)N1C[C@@H]2N[C@H](C1)[C@@H]2c1ccc(-c2ccccc2F)cc1" Test system: Paired box protein Pax-8 (Homo sapiens) Read-out: AC50 Value: ?
Given back: 13.8 µM (active)

Asked: Item: "CN1C2CCC1/C(=C/c1ccccn1)C(=O)/C2=C\c1ccccn1" Test system: Paired box protein Pax-8 (Homo sapiens) Read-out: AC50 Value: ?
Given back: 0.852 µM (active)

---

# EC50 per record follows
- experiment-summary: NIH3T3 cell viability loss – ATP luminescence, mouse fibroblasts, counter-screen, dose response (AID 2010);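 also: cells exposed to compound for about 90 hours before reading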
- Type: functional, cell-based
Calls of active or inactive are those of the source.

Reference set (2 entries):
COc1ccc(-c2oc3c4c(cc(OC)c3c(=O)c2CC=C(C)C)OC(C)(C)C=C4)c(OC)c1 : > 60 µM (not active)
O=C(N/N=C\c1ccc([N+](=O)[O-])o1)c1cncc(Br)c1 : > 60 µM (not active)

Asked: What does the record list as EC50 for "Cn1cccc1C(=O)Nc1nc(-c2ccccn2)cs1" ?
Given back: 4.47 µM (active)

Asked: What does the record list as EC50 for "Cc1nn(Cc2c(F)c(F)c(F)c(F)c2F)c(C)c1NC(=O)c1ccc(COc2ccc(Cl)cc2Cl)o1" ?
Given back: > 60 µM (not active)

Asked: What does the record list as EC50 for "COc1ccccc1N1CCN(C/C=C/c2ccc(N(C)C)cc2)CC1" ?
Given back: > 60 µM (not active)

---

# AC50 per record follows
- study-system: Cytochrome P450 3A4 (Homo sapiens, UniProt P08684);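 also: confirmatory qHTS run detecting inhibitors and substrates of CYP3A4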
- Sequence (P08684 whole entry): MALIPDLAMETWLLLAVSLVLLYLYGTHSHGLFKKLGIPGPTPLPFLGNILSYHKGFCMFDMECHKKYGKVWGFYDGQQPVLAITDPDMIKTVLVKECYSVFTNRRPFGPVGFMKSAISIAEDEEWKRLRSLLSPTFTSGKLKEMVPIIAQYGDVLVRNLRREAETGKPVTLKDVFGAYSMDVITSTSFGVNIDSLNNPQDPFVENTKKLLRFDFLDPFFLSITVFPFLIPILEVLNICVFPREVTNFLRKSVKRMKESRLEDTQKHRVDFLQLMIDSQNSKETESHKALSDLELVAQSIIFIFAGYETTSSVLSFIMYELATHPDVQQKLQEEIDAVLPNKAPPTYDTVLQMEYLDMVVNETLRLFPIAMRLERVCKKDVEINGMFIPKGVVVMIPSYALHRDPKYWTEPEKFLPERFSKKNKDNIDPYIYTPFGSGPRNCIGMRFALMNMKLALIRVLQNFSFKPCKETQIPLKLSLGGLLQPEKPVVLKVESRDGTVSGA
- conditions: Potency

Reference set (3 entries):
COc1cc2ccc(=O)oc2c2ccoc12 : 3.98 µM (inconclusive)
COc1ccc(-c2coc3cc(OC(C)=O)cc(OC(C)=O)c3c2=O)cc1 : 31.6 µM (inconclusive)
CCC1=C(OC(=O)N(CC)CC)N2C(=O)O/C(=N\CCOC)[C@]2(C)[C@H]2C1=CC[C@H]1C(=O)N(C)C(=O)[C@H]12 : 10 µM (inconclusive)

Asked: What does the record list as AC50 for COc1ccc2c(c1)OCC(Cc1ccc(OC)c(OC(C)=O)c1)C2=O (stereo not given) ?
Given back: 39.8 µM (inconclusive)

Asked: What does the record list as AC50 for "CN1CC(CO)=C[C@H]2c3cccc4[nH]cc(c34)C[C@H]21" ?
Given back: 39.8 µM (inconclusive)

Asked: What does the record list as AC50 for C=CCOC(=O)C(C(=O)CC)C(NC(=O)OC)c1ccc(F)cc1 (stereo not given) ?
Given back: 3.16 µM (inconclusive)

Asked: What does the record list as AC50 for COC(=O)c1ccc(C23CC4(C2)[C@H](CN(Cc2ccc(C(F)(F)F)cc2)[C@@H]4c2ccccc2)C3c2ccccc2)cc1 (stereo not given in full) ?
Given back: 25.1 µM (inconclusive)

Asked: What does the record list as AC50 for CC(=O)c1c(O)c(C)c(O)c2c1OC1=CC(=O)C(C(C)=O)C(=O)[C@@]12C (stereo not given in full) ?
Given back: 12.6 µM (inconclusive)

Asked: What does the record list as AC50 for "Cc1cc(O)c(C=O)c2c1C(=O)Oc1c(COC(=O)/C=C/C(=O)O)c(O)c(C(=O)O)c(C)c1O2" ?
Given back: 39.8 µM (inconclusive)

Asked: What does the record list as AC50 for CCCn1c(C)nc2c(NC(C)CCCN(CC)CC)nc(C)nc21 (stereo not given) ?
Given back: 25.1 µM (inconclusive)

---

- experiment-summary: Trypanosoma cruzi growth suppression in host cells – NIH3T3 host cells, beta-gal luminescence, confirmation (AID 2044);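 also: intracellular parasites grown in NIH/3T3 mouse fibroblasts as host cells; luminescent beta-galactosidase reporter signal from transgenic T. cruzi replicating inside host cells; inhibitors lower the luminescence signal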
- Type: functional, cell-based
Calls of active or inactive are those of the source.
measured-property: EC50

Reference set (3 entries):
COc1ccc(-c2oc3c4c(cc(OC)c3c(=O)c2CC=C(C)C)OC(C)(C)C=C4)c(OC)c1 : 2080 nM (active)
O=C(C1=C[C@H](c2ccc(Br)cc2)C[C@H](OCCCCO)O1)N1CCN(Cc2ccc3c(c2)OCO3)CC1 : 346 nM (active)
CCCCCC(=O)Nc1cccc(C2=NOC3(C2)C[C@@H](C(N)=O)N(C(=O)c2ccc(Cl)cc2)C3)c1 (some centres undefined) : 374 nM (active)

Asked: What does the record list as EC50 for "O=C(N/N=C\c1ccc([N+](=O)[O-])o1)c1cncc(Br)c1" ?
Given back: 389 nM (active)

---

- study-system: UniProtKB P9WHJ3
- Sequence (P9WHJ3 whole entry): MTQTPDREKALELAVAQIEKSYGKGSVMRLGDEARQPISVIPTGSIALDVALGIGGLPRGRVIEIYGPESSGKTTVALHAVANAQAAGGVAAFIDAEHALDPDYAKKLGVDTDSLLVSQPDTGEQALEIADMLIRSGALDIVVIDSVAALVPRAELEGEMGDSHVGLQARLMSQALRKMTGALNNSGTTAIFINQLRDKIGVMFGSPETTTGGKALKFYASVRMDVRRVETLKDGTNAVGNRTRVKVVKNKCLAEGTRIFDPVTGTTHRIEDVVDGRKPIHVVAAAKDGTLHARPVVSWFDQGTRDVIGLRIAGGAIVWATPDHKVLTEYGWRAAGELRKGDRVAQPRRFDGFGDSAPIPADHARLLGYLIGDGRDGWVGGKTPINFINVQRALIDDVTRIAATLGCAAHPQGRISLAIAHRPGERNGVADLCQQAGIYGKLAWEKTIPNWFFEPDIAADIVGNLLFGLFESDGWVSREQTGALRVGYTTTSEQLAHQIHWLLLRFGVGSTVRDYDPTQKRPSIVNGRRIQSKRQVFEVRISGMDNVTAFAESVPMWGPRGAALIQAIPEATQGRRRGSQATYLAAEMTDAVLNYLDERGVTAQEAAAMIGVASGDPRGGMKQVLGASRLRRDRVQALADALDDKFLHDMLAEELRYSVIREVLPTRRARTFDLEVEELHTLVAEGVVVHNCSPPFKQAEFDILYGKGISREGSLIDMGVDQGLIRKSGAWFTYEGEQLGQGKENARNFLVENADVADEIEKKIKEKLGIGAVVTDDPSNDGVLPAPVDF
- experiment-summary: Fluorescence Cell-Free Homogeneous Dose Retest to Identify Inhibitors of RecA-Intein Splicing Activity. [Related pubchem assays (depositor defined):AID2097, AID2223, AID489010, AID492950]
- Assay type: functional
Activity calls are given as the source filed them.
# EC50 per record follows

Reference set (5 entries):
CCCc1n[nH]c2c1C(c1ccc(O)c(OC)c1)C(C#N)=C(N)O2 (configuration not stated) : 8.18 µM (active)
C/C(=C/CCC(C)[C@H]1CC[C@@]2(C)C3=C(CC[C@]12C)[C@@]1(C)CCC(=O)C(C)(C)[C@@H]1CC3)C(=O)O (some centres not stated) : 5.88 µM (active)
O=[N+]([O-])/C(C(Cl)=C(Cl)Cl)=C(/Sc1ccccc1)N1CCCCC1 : 7.05 µM (active)
Cc1ccc(-n2nc(C)c(NC(=O)CCl)c2C)cc1C : 16 µM (active)
O=C(Nc1cccc(OC(=O)c2ccc(Br)o2)c1)c1ccccc1 : 9.2 µM (active)

Asked: What does the record list as EC50 for CC1CC(C)CN(C(=O)c2ccc3c(c2)N(Cc2ccccc2)CCS3)C1 (configuration not stated) ?
Given back: 23.6 µM (active)

Asked: What does the record list as EC50 for CCCCC(=O)NC(c1cccc([N+](=O)[O-])c1)c1c(OC(C)=O)ccc2ccccc12 (configuration not stated) ?
Given back: 25.4 µM (active)
